Attribution: ChEMBL document CHEMBL5724796

- experimental-system: Casein kinase I isoform delta (Homo sapiens)
- details: Compound concentration 20.0 uM
- Description: Thermal Shift Assay. Domain: start/stop: M1-K294
Non-standard residues stand in square brackets, D forms with d. Residues, ends and D or L forms follow the SMILES beside them. *: point of attachment. Tyr(3-Cl) = N[C@@H](Cc1ccc(O)c(Cl)c1)C(=O)O; Benzoyl(3,5-Cl2) = O=C(c1cc(Cl)cc(Cl)c1)*; Lys(Et2) = CCN(CC)CCCC[C@H](N)C(=O)O; Gly(cPent) = N[C@H](C(=O)O)C1CCCC1; Nle = CCCC[C@H](N)C(=O)O; Cbz = O=C(OCc1ccccc1)*; NH(propargyl) = C#CCN*; CH2F = FC*
Cut-off -0.08 °C on ΔTm: below means condition met, at or above means condition not met.

{"columns": ["molecule", "experimental-system", "assigned-label"],
 "data": [
  ["O=c1cc(-c2ccc(O)cc2)oc2c(CN3CCN(Cc4cccs4)CC3)c(O)cc(O)c12", "Casein kinase I isoform delta (Homo sapiens)", "condition met"],
  ["O=C(NC(Cc1ccccc1)C(=O)NC(Cc1ccccc1)C(=O)CF)OCc1ccccc1 (stereo not drawn) (Cbz-Phe-Phe-CH2F; configuration not given here)", "Casein kinase I isoform delta (Homo sapiens)", "condition met"],
  ["CCCC[C@@H](C=O)NC(=O)[C@H](CC(C)C)NC(=O)[C@H](CC(C)C)NC(C)=O (Ac-Leu-Leu-[Nle]-aldehyde)", "Casein kinase I isoform delta (Homo sapiens)", "condition not met"],
  ["CCC1CCCCN1C(=O)n1ncc(C(O)(c2ccccc2)c2ccccc2)n1 (centres undefined)", "Casein kinase I isoform delta (Homo sapiens)", "condition not met"],
  ["CCc1nc2c(C)cc(N3CCN(CC(=O)N4CC(O)C4)CC3)cn2c1N(C)c1nc(-c2ccc(F)cc2)c(C#N)s1", "Casein kinase I isoform delta (Homo sapiens)", "condition not met"],
  ["COc1ccc2nc3[nH]nc(C)c3c(NCCOCCO)c2c1", "Casein kinase I isoform delta (Homo sapiens)", "condition not met"],
  ["C[C@H](NC(=O)CCc1nc2ccccc2c(=O)[nH]1)c1ccccc1", "Casein kinase I isoform delta (Homo sapiens)", "condition not met"],
  ["C=CCc1cccc(CNc2nc3ccccc3n2CCC)c1O", "Casein kinase I isoform delta (Homo sapiens)", "condition not met"],
  ["O=C(Nc1ccc2[nH]nc(-c3ccncc3)c2c1)[C@@H]1CCN(CC(=O)N2CCN(c3ccc(-c4ncccn4)cc3)CC2)C1", "Casein kinase I isoform delta (Homo sapiens)", "condition not met"],
  ["CC(=O)N1CCc2c(c(N3CCCc4cc(-c5cnn(C)c5)c(C(F)F)cc43)nn2C2CCOCC2)C1", "Casein kinase I isoform delta (Homo sapiens)", "condition not met"],
  ["Cc1ncc(Cl)cc1NCc1ccc(C(=O)N[C@@H](CC2CCCC2)C(=O)NC2CC2)s1", "Casein kinase I isoform delta (Homo sapiens)", "condition not met"],
  ["CS(=O)(=O)c1ncn2c(NCc3c(F)ccc4c3CCO4)ncc(-c3ccc(C4CC4)nc3)c12", "Casein kinase I isoform delta (Homo sapiens)", "condition met"],
  ["O=C(c1cccc(-c2ccc(-c3cn(C(=O)N4CCCCC4c4ccccc4)nn3)cc2)c1)N1CCCCC1 (centres undefined)", "Casein kinase I isoform delta (Homo sapiens)", "condition not met"],
  ["O=C(CCCCCCC(=O)Nc1ccc([C@H]2O[C@@H](CSc3nc(-c4ccccc4)c(-c4ccccc4)o3)C[C@@H](c3ccc(CO)cc3)O2)cc1)NO", "Casein kinase I isoform delta (Homo sapiens)", "condition not met"],
  ["COc1cc(C(=O)N2C[C@H](N)CC[C@@H]2C)cc2nc(-c3cc4cccnc4n3CC3CC3)n(C)c12", "Casein kinase I isoform delta (Homo sapiens)", "condition met"],
  ["C[C@@H]1CN(c2ncc(Cl)c(Nc3ccc4c(c3)n(CCC(C)(C)O)c(=O)n4C)n2)C[C@H](C)C1(F)F", "Casein kinase I isoform delta (Homo sapiens)", "condition met"],
  ["NC(=O)C(CCCN=C(N)CCl)NC(=O)c1ccccc1 (centres undefined)", "Casein kinase I isoform delta (Homo sapiens)", "condition met"],
  ["CCNC(=O)NCCSC[C@H]1O[C@@H](n2cnc3c(N)ncnc32)[C@H](O)[C@@H]1O", "Casein kinase I isoform delta (Homo sapiens)", "condition not met"],
  ["O=c1[nH]c(N2CCC3(CC2)CN(CCO)c2cc(F)cc(F)c23)nc2c1CCCC2", "Casein kinase I isoform delta (Homo sapiens)", "condition met"],
  ["Cn1c(=O)cc(N2CCC[C@@H](N)C2)n(Cc2cc(F)ccc2C#N)c1=O", "Casein kinase I isoform delta (Homo sapiens)", "condition not met"],
  ["CCCCCCCCCCCCCCCCNNC(=O)c1cccs1", "Casein kinase I isoform delta (Homo sapiens)", "condition not met"],
  ["C#CCNC(=O)[C@H](CO)NC(=O)[C@H](CCCCN(CC)CC)NC(=O)[C@@H](NC(=O)[C@@H](NC(=O)[C@H](Cc1ccc(O)c(Cl)c1)NC(=O)c1cc(Cl)cc(Cl)c1)C1CCCC1)[C@@H](C)CC ({Benzoyl(3,5-Cl2)}-[Tyr(3-Cl)][Gly(cPent)]I[Lys(Et2)]S-{NH(propargyl)})", "Casein kinase I isoform delta (Homo sapiens)", "condition not met"],
  ["CN1CCN2c3c(cccc31)[C@@H]1CN(CCCC(=O)c3ccc(F)cc3)CC[C@@H]12", "Casein kinase I isoform delta (Homo sapiens)", "condition met"],
  ["O=C(c1ccc2c(ccn2-c2ccc(F)cc2)c1)N1CC(N2CCN(C(=O)c3nccs3)CC2)C1", "Casein kinase I isoform delta (Homo sapiens)", "condition met"],
  ["O=S(=O)(CSc1nnc(Br)n1Cc1ccc(Br)c2ccccc12)Nc1cccnc1", "Casein kinase I isoform delta (Homo sapiens)", "condition met"],
  ["C=CC(=O)Nc1cccc(-c2c[nH]cc2CN(C)CCN)c1", "Casein kinase I isoform delta (Homo sapiens)", "condition not met"],
  ["CCS(=O)(=O)N1CC(CC#N)(n2cc(-c3ncnc4[nH]ccc34)cn2)C1", "Casein kinase I isoform delta (Homo sapiens)", "condition not met"],
  ["N#Cc1ccc(Nc2cnccc2SCc2ccccc2C(=O)O)c2ccccc12", "Casein kinase I isoform delta (Homo sapiens)", "condition met"],
  ["Cc1[nH]c2c(N3CCCCC3)c(-c3ccccc3)nn2c(=O)c1-c1ccc(O)cc1", "Casein kinase I isoform delta (Homo sapiens)", "condition not met"],
  ["COc1ccc(C2C(C#N)=C(N)OC3=C2C(=O)CC(c2cccc4ccccc24)C3)cc1 (centres undefined)", "Casein kinase I isoform delta (Homo sapiens)", "condition met"],
  ["Cc1n[nH]c(C)c1Cc1sc2c(c1C(=O)N1C[C@H](O)CO1)c(=O)n(C)c(=O)n2CC(C)C", "Casein kinase I isoform delta (Homo sapiens)", "condition met"],
  ["CN1CC(=O)N2[C@H](c3ccc4c(c3)OCO4)c3[nH]c4ccccc4c3C[C@@H]2C1=O", "Casein kinase I isoform delta (Homo sapiens)", "condition not met"],
  ["Cc1cc(Cn2c(=O)n(Cc3cnc(C)s3)c(=O)c3cc(S(=O)(=O)NC4(C)CC4)ccc32)n(C)n1", "Casein kinase I isoform delta (Homo sapiens)", "condition not met"]
]}
